These data points were gathered from PubChem BioAssay.

Parameter: composite z-score. Scope: all listed entries.
Assay: small-molecule microarray binders of probe aDKK1, primary screen, biochemical, biotinylated probe, 635/667 nm fluorescence (AID 1099);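 also: score merges 667nm spot fluorescence with signal to noise across triplicate slides; reference of the scale not given here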
Settings: higher = more signal

Compound | composite z-score
[N-]=[N+]=NCc1ccccc1C[C@]1(C(=O)NCc2ccccc2)N=C(c2ccc(OCCCO)cc2)O[C@H]1c1ccccc1CN=[N+]=[N-] | 1.22
C=CCC(OC(C)=O)[C@@H]1[C@@H](N(Cc2cc3ccccc3o2)C(=O)c2cccc3ccccc23)c2cc(OCCCO)ccc2N1C(=O)c1ccc2ccccc2c1 (stereo partly drawn) | 0.245
COC(=O)[C@@]1(Cc2ccc(F)cc2)[C@H]2c3cc(C(=O)N(C)C)n(CCn4cc([N+](=O)[O-])nc4C)c3C[C@H]2CN1C(=O)c1ccccc1 | 0.539

====

Target: Torsin-1A-interacting protein 1 (Homo sapiens) (UniProt Q5JTV8)
Sequence (Q5JTV8 whole entry, looked up): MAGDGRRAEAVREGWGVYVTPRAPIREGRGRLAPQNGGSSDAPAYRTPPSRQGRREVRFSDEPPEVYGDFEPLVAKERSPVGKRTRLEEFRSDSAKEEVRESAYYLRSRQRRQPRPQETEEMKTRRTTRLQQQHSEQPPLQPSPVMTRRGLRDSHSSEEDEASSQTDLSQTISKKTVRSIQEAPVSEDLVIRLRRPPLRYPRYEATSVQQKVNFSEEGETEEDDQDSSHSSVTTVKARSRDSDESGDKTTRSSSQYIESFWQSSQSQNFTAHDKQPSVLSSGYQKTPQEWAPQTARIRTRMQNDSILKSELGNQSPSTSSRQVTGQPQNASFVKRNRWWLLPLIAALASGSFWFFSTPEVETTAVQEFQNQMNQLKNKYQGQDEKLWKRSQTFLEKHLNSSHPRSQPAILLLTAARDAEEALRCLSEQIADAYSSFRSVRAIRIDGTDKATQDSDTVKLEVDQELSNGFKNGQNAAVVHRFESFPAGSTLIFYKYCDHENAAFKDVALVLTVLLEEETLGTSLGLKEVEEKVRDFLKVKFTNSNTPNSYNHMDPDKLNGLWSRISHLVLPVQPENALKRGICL
Assay: LAP1 binders from COS7 cell lysate, primary screen, small-molecule microarray, 635/667 nm fluorescence (AID 1116)
Details: COS7-hLAP1 lysate binding, 635 nm fluorescence, higher = more signal
Parameter: composite z-score. Scope: all listed entries.

Smiles Notation | composite z-score
O=C1O[C@@H](c2ccccc2)[C@@H](c2ccccc2)N2[C@@H](c3ccc(O)cc3)[C@]3(C(=O)Nc4ccc(C#CC5=CCCCC5)cc43)[C@@H](C(=O)N3CCCCCCC3)[C@H]12 | 3.16
C#CCN([C@H](/C=C/C1CC1)[C@@H](O)Cc1ccccc1)[C@@H](Cc1ccccc1)C(=O)OC | -0.188
COc1cccc(OC)c1C(=O)O[C@H]1[C@@H]2OC(=O)[C@H](Cc3cccc(Br)c3)C/C=C/C[C@@H](Cc3cccc(Br)c3)C(=O)O[C@H]2[C@@H](OC)O[C@@H]1CO | 0.482
CCOC(=O)C1=C[C@@H](C(C)(C)C)N(S(=O)(=O)c2ccc(C)cc2)[C@H]1c1ccccc1Cl | 1.13

====

Target: Fibroblast growth factor 10 (Homo sapiens) (UniProt O15520)
Sequence (O15520 whole entry, looked up): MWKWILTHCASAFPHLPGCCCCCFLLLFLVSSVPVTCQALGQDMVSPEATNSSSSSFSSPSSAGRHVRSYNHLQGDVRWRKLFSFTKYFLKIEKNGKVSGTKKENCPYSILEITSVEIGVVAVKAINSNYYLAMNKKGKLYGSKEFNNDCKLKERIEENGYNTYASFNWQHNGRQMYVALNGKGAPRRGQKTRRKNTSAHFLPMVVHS
Test: FGF10 binders on small-molecule microarrays, primary screen, biochemical, small-molecule microarray, 635 nm fluorescence (AID 1102)
Conditions: FGF10 binding, fluorescence 635 nm, higher = more signal

Compound | composite z-score
COCCOC(=O)N1C(=O)[C@@]2(c3ccccc31)[C@H](C(=O)N1CCCCCCC1)[C@H]1C(=O)O[C@H](c3ccccc3)[C@H](c3ccccc3)N1[C@@H]2c1ccc(O)cc1 | 1.38
CCOC(=O)C[C@H]1[C@H](OC(=O)c2ccc(-c3ccccc3)cc2)[C@@H](NC(=O)c2ccc3ccccc3c2)c2cc(OCCCO)ccc2N1C(=O)c1ccccc1 | 1.28
COCCOC(=O)N1C(=O)[C@@]2(c3cc(C#CCCO)ccc31)[C@H](C(=O)N1CCc3cc(OC)c(OC)cc3C1)[C@H]1C(=O)O[C@H](c3ccccc3)[C@H](c3ccccc3)N1[C@@H]2c1ccccc1OCCO | 1.42
NCCCC[C@@H]1NC(=O)[C@H]2C[C@@H](C(=O)NCc3ccc(F)cc3)[C@@H](c3ccc(O)cc3)N2C1=O | 0.186
O=C1NC(=O)C2C1C=CC(C(O)c1ccc(F)cc1)N2Nc1ccccn1 (stereo not drawn) | 0.138
O=C1OCCC=C[C@H]2OC34C=CCN(CCN5CCOCC5)C(=O)[C@H]3N(CCCO)C(=O)[C@@H]4C12 (stereo partly drawn) | -0.272
C=CCC(OC(C)=O)[C@@H]1[C@@H](N(Cc2ccc(-c3cccc(C(F)(F)F)c3)o2)C(=O)c2cccc3ccccc23)c2cc(OCCCO)ccc2N1C(=O)c1ccc2ccccc2n1 (stereo partly drawn) | 0.0448
C/C=C/CN(C(=O)C#Cc1ccccc1)[C@H](CO[Si](C)(C)C(C)(C)C)c1ccccc1 | -1.27
COCCOC(=O)N1C(=O)[C@@]2(c3cc(C#CC4(O)CCCCCC4)ccc31)[C@H](C(=O)N1CCc3cc(OC)c(OC)cc3C1)[C@H]1C(=O)O[C@H](c3ccccc3)[C@H](c3ccccc3)N1[C@@H]2c1ccc(O)cc1 | 1.02
O=C1OCCC/C=C\[C@H]2OC34C=CCN(Cc5ccccc5)C(=O)[C@H]3N(CCCCCO)C(=O)[C@@H]4C12 (stereo partly drawn) | -0.744
COC(=O)[C@@]1(Cc2ccc(OC)cc2)[C@@H]2[C@@H](CC(=O)[C@H]2CC(=O)C(=O)N2CCCC2)CN1C(=O)c1ccccc1 | 1.44
C#CCN([C@H](/C=C/C1CC1)[C@@H](O)Cc1ccccc1)[C@@H](Cc1ccccc1)C(=O)OC | -0.351
CN(C)CCCC[C@@H]1NC(=O)[C@H]2C[C@@H](C(=O)O)[C@@H](c3cccc(OCCO)c3)N2C1=O | 0.702

====

Tested on: Chordin-like protein 2 (CHRDL2)
Assay: CHRDL2 small-molecule binders, primary screen, biochemical, small-molecule microarray, 635 nm fluorescence (AID 1126);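 also: printed compound slides probed with Chrdl2 protein at 4 µg/mL for 1 h at 4 C; score merges 667 nm emission intensity with signal to noise over three replicate slides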
Details: small-molecule microarray binding, fluorescence 635 nm; higher = more signal
Parameter: composite z-score. Scope: all listed entries.

Molecule | composite z-score
COCCOC(=O)N1C(=O)[C@@]2(c3cc(C#CC4=CCCCC4)ccc31)[C@H](c1ccc(OCCO)cc1)N1[C@H](c3ccccc3)[C@H](c3ccccc3)OC(=O)[C@H]1[C@@H]2C(=O)N1CCCCCCC1 | 0.91
CC(c1ccccc1)C(O)C1C=CC2C(=O)N(c3ccccc3)C(=O)C2N1Nc1ccc(C#N)cc1 (centres undefined) | -0.34
CCCCC(=C=CC[C@H](O)c1ccc(OCCO)cc1)C[C@H](O)c1ccccn1 | 0.0162
COC(=O)[C@@]1(Cc2ccccc2CN=[N+]=[N-])COC(c2ccc(OCCCO)cc2)=N1 | -2.4

====

Experiment: E. coli DRC41 culture turbidity changes, primary screen, E. coli filamentation inducer project, strain DRC41, OD650, 48 h (AID 1152);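 also: E. coli MC1000 strain DRC41 lacking acrAB efflux pump and sulA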
Details: E. coli DRC41 (acrAB sulA), higher = more signal, called active from +8 up or from −8 down
Records here are stratified by z-score; strata: low value = under -0.6, medium value = from -0.6 up to 0.8, high value = 0.8 and over

Molecule | Classification
C=C(COC)/C(=C/C[C@@H](OC(C)=O)c1ccccc1OCCO)c1cc(C(=O)OC)ccc1OC | medium value
CC(=O)c1ccc(C(O)C2C=CC3C(=O)NC(=O)C3N2Nc2ccc(Cl)cc2Cl)cc1 (stereo unspecified) | low value
CC(C)C(=C=CC[C@@H](O)c1ccc(OCCO)cc1)CCO | high value
C[C@@H](OCc1ccccc1)C1NC(=O)[C@@]23C(=O)N[C@@H](Cc4ccccc4)C2[C@H](C)[C@@]2(C)O[C@H]2C3/C=C/C/C=C\CNC(=O)[C@H](Cc2ccccc2)NC1=O (stereo partly specified) | medium value
C/C=C/CN(C(=O)C#Cc1ccccc1)[C@H](CO[Si](C)(C)C(C)(C)C)c1ccccc1 | high value
CC(C)C(=C=CC[C@@H](O)c1cccc(OCCO)c1)CCO | high value
CCCC[C@H]1OB(O)C[C@H]2C1=C(C)C[C@H]1C(=O)C=CC(=O)[C@H]12 | medium value
COc1ccc(NN2C(C(O)c3ccc(OC)cc3)C=CC3C(=O)N(C4CCCCC4)C(=O)C32)cc1 (stereo unspecified) | low value
CCOC(=O)C[C@H]1[C@H](OC(=O)c2cc3ccccc3oc2=O)[C@@H](NC(=O)C2CCCCC2)c2cc(OCCCO)ccc2N1C(=O)Cc1ccc(OC)cc1 | low value
C=CCC(OC(C)=O)[C@@H]1[C@@H](N(Cc2ccc(-c3cccc(C(F)(F)F)c3)o2)C(=O)Cc2ccc(OC)cc2)c2cc(OCCCO)ccc2N1C(=O)c1ccc2ccccc2n1 (stereo partly specified) | low value
COC(=O)[C@@]1(Cc2ccccc2CN=[N+]=[N-])COC(c2ccc(OCCCO)cc2)=N1 | medium value
CC=CC(O)C1C=CC2C(=O)N(C)C(=O)C2N1NC(=O)OC(C)(C)C (stereo unspecified) | low value
C#CCN([C@H](/C=C/C1CC1)[C@@H](O)Cc1ccccc1)[C@@H](Cc1ccccc1)C(=O)OC | high value
C=CCC(OC(C)=O)[C@@H]1[C@@H](N(Cc2cccc3ccccc23)C(=O)c2ccc(C)cc2)c2cc(OCCCO)ccc2N1C(=O)c1ccc2ccccc2n1 (stereo partly specified) | high value
CCOC(=O)C[C@H]1[C@H](OC(=O)c2ccc(-c3ccccc3)cc2)[C@@H](NC(=O)c2ccc3ccccc3c2)c2cc(OCCCO)ccc2N1C(=O)c1ccccc1 | low value

====

Test: S. cerevisiae growth modulation with rapamycin, primary screen, strain BY4716, OD600, 96 h (AID 1091); also: test concentration not given here
Settings: called active from +8 up or from −8 down
Calls of active or inactive are those of the source.
Labels: 1 = active, 0 = inactive

Smiles Notation | Classification
CCOC(=O)C[C@H]1[C@H](OC(=O)c2ccc(C(=O)c3ccccc3)cc2)[C@@H](NC(=O)c2ccc3ccccc3c2)c2cc(OCCCO)ccc2N1C(=O)c1ccc2ccccc2n1 | 0
[N-]=[N+]=NCc1ccccc1C[C@]1(C(=O)N2CCOCC2)N=C(c2ccc(OCCCO)cc2)O[C@H]1c1ccccc1CN=[N+]=[N-] | 1
CCCC[C@@H](O)C1=C(COC)Cn2c(=O)n(-c3ccccc3)c(=O)n2[C@H]1CO | 0
COCCCNC(=O)[C@@H]1c2ccccc2C(=O)N(C2CCCCC2)[C@H]1c1ccc(CO)cc1 | 0
